- Target of assay: ULK2 (Homo sapiens, UniProt Q8IYT8)
- Construct: purchased Eurofins (KINOMEscan service)
- Sequence (Q8IYT8 1-1036): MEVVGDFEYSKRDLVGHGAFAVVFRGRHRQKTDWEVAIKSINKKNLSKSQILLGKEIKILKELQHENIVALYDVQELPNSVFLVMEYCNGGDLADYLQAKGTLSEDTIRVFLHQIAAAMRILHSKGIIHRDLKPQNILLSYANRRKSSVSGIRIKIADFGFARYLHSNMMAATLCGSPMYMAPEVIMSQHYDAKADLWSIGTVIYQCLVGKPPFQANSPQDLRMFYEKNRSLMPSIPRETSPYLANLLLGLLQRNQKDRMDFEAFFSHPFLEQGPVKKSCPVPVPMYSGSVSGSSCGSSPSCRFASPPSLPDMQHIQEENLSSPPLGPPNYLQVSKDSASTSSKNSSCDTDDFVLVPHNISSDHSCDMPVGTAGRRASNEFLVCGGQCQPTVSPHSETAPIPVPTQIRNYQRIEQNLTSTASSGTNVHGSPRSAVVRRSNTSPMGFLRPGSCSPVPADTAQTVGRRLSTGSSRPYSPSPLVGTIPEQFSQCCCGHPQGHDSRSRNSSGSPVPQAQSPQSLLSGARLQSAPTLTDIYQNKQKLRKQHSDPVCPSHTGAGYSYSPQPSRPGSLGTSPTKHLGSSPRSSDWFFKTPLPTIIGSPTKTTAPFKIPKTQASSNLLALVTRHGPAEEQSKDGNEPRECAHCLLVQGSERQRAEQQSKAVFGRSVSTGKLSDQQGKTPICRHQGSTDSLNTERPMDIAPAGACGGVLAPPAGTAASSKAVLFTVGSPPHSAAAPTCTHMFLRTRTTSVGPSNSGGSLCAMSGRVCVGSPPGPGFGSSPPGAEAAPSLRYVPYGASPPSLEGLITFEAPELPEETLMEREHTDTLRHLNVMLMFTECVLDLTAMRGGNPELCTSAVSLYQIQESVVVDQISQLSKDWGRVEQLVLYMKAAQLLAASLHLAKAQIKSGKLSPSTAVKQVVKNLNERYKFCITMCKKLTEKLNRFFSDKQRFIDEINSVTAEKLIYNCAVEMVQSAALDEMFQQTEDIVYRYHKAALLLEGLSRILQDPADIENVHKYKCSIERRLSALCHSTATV
- Procedure summary: KINOMEscan kinase binding assay

{"Line notation": "CC1(COc2ccc3c(c2)ncn3-c2ccc3cccc(N4CCC(N)CC4)c3n2)COC1", "Kd": "< 1 nM"}

* * *

- Target of assay: FLT3 (Homo sapiens)
- Sequence (P36888 27-993): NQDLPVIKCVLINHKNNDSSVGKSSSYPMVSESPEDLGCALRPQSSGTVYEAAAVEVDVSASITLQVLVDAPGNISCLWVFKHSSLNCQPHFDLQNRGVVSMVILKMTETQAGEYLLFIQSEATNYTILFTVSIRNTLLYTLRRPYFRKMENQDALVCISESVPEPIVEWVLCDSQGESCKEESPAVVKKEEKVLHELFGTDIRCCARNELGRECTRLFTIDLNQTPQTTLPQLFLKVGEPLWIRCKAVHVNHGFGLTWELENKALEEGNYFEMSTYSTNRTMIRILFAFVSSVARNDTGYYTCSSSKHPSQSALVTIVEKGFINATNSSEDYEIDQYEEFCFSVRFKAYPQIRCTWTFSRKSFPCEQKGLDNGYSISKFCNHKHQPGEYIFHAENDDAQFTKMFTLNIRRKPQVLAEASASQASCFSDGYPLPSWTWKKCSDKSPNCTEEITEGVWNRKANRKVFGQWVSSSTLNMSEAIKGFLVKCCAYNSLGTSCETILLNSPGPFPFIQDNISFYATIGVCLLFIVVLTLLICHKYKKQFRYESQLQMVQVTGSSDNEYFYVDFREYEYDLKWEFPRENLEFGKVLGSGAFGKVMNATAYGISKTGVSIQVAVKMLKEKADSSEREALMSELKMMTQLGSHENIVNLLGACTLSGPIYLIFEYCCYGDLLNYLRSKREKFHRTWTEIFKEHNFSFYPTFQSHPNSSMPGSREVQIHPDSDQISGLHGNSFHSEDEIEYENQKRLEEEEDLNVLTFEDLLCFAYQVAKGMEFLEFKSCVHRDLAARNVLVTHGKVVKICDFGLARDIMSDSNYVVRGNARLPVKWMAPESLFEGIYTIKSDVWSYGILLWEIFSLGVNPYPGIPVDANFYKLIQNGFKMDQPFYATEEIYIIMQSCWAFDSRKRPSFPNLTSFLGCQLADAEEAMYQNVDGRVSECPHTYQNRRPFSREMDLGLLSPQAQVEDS
pKd: −log10 of the molar value.

{"Compound": "CC(C)(CO)c1cc(NC(=O)Nc2ccc(-c3cn4c(n3)sc3cc(OCCN5CCOCC5)ccc34)cc2)no1 [AC886]", "pKd": 8.96}

* * *

- Target of assay: FLT4 (Homo sapiens, UniProt P35916)
- Sequence (P35916 25-1363): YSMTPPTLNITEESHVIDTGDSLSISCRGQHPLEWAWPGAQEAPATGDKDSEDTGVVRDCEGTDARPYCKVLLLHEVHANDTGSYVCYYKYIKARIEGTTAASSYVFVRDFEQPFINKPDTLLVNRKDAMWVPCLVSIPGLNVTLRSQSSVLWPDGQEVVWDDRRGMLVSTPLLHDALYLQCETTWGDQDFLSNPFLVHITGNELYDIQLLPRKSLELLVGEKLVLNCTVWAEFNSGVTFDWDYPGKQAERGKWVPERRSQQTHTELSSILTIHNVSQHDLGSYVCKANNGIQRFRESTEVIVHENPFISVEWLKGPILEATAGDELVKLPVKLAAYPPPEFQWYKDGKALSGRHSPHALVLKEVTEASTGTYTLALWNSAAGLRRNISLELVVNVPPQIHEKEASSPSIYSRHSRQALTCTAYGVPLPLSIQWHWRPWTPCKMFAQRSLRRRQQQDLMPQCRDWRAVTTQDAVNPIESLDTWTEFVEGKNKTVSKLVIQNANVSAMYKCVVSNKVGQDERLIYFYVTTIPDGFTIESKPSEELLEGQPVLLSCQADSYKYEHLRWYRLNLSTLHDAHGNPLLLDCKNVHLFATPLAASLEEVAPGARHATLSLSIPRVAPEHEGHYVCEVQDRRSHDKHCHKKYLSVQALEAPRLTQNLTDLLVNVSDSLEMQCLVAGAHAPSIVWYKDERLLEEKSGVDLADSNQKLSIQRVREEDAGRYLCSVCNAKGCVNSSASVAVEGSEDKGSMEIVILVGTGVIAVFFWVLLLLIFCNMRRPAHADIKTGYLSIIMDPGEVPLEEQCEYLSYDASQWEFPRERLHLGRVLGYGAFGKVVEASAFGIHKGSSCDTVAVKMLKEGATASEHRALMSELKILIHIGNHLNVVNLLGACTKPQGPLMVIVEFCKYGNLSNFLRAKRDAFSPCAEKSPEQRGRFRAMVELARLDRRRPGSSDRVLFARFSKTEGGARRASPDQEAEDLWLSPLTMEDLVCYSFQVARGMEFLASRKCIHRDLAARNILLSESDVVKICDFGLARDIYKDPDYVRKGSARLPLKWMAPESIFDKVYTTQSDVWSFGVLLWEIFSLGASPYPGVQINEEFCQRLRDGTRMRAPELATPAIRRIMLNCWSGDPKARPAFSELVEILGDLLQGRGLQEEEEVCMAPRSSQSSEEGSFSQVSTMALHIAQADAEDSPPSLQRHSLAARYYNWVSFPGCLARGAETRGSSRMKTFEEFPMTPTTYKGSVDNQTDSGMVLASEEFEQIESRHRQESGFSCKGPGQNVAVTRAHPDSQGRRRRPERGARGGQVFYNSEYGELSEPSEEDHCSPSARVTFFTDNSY
pKd: −log10 of the molar value.
Here, each record is paired with measured pKd data.

{"Molecule": "CC(C)(CO)c1cc(NC(=O)Nc2ccc(-c3cn4c(n3)sc3cc(OCCN5CCOCC5)ccc34)cc2)no1 [AC886]", "pKd": 7.29}
{"Molecule": "CC1(COc2ccc3c(c2)ncn3-c2ccc3cccc(N4CCC(N)CC4)c3n2)COC1 [Crenolanib, crenolanib]", "pKd": 6.74}
{"Molecule": "CCc1nc(C(N)=O)c(Nc2ccc(N3CCC(N4CCN(C)CC4)CC3)c(OC)c2)nc1NC1CCOCC1 [Gilteritinib, gilteritinib]", "pKd": 6.82}

* * *

- Test system: EOL-1 cells
- Procedure summary: Cell viability assay (CellTiter-Glo 2.0)
- Format: cell-based, human
- Details: EOL-1, wild-type FLT3 with FIP1L-PDGFRα, 3 days
- Description: Human AML cell lines MV4-11, Kasumi-1, HL-60, and THP-1 were purchased from the American Type Culture Collection (Manassas, Virginia, USA). […] The amount of ATP in viable cells was quantified as a luminescent signal using the CellTiter-Glo 2.0 Assay (Promega Corporation, Madison, Wisconsin, USA) and EnVision (PerkinElmer Inc, Waltham, Massachusetts, USA) to determine the number of viable cells according to the manufacturers’ instructions.

{"Line notation": "CC(C)(C)c1cc(NC(=O)Nc2ccc(-c3cn4c(n3)sc3cc(OCCN5CCOCC5)ccc34)cc2)no1", "IC50, nM": 0.2}

* * *

Here, each record is paired with measured Kd data.
- Target of assay: ULK2 (Homo sapiens, UniProt Q8IYT8)
- Construct: purchased Eurofins (KINOMEscan service)
- Sequence (Q8IYT8 1-1036): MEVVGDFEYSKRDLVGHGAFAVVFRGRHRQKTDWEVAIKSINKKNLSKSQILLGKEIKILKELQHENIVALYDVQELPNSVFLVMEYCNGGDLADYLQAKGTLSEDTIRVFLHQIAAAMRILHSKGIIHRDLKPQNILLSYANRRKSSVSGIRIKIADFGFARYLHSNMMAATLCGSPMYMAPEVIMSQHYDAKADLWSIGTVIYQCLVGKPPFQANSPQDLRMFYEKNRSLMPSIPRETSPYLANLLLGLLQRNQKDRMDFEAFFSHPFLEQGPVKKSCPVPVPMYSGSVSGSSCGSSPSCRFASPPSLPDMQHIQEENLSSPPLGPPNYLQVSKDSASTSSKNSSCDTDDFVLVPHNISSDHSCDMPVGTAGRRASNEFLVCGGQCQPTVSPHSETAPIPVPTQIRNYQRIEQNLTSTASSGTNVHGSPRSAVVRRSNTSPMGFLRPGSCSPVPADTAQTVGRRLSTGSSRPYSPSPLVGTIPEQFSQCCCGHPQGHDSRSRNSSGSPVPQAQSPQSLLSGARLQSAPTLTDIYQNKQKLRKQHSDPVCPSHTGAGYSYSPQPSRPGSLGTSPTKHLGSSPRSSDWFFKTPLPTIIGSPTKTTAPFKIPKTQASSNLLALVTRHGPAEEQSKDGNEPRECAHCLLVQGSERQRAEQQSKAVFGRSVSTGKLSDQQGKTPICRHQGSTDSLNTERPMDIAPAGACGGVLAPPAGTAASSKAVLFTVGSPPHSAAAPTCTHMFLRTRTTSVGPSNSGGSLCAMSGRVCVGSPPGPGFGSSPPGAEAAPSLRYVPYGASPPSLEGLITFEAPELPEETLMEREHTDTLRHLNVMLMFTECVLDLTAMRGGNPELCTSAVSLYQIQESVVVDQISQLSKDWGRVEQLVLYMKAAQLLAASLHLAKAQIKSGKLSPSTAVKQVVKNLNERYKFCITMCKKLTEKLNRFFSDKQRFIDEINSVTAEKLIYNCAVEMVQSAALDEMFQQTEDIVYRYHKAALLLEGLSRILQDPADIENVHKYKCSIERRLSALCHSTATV
- Procedure summary: KINOMEscan kinase binding assay
- Details: kinase ULK2 (ULK2)

{"Compound": "CC(C)(CO)c1cc(NC(=O)Nc2ccc(-c3cn4c(n3)sc3cc(OCCN5CCOCC5)ccc34)cc2)no1 [AC886]", "Kd": "> 30000 nM"}
{"Compound": "CC1(COc2ccc3c(c2)ncn3-c2ccc3cccc(N4CCC(N)CC4)c3n2)COC1 [Crenolanib, crenolanib]", "Kd": "0.7 nM"}
{"Compound": "CCc1nc(C(N)=O)c(Nc2ccc(N3CCC(N4CCN(C)CC4)CC3)c(OC)c2)nc1NC1CCOCC1 [Gilteritinib, gilteritinib]", "Kd": "700 nM"}
